target: cat T1R1/T1R3 receptor (Felis catus)
assay comment: cell-based
Counter-ions that a name gives are not always drawn.
Threshold values for the molecules below.
Record the result as number plus unit.

[[record]]
molecule = "O=c1ccn([C@H]2C[C@H](O)[C@@H](COP(O)(O)=S)O2)c(=O)[nH]1 [2′-Deoxyuridine-5′-O-monophosphosphorothioate (5′-dUMPS)]"
experimental_endpoint = "Threshold"
reported_value = "5.000 mM"

[[record]]
molecule = "Nc1nc2c(ncn2[C@H]2C[C@H](OP(=O)(O)O)[C@@H](COP(=O)(O)O)O2)c(=O)[nH]1 [2′-Deoxyguanosine-3′,5′-O-bisphosphate]"
experimental_endpoint = "Threshold"
reported_value = "0.005 mM"

[[record]]
molecule = "Nc1nc(Cl)c2ncn(C3OC(COP(=O)(O)O)C(O)C3O)c2n1 (stereo not shown)"
experimental_endpoint = "Threshold"
reported_value = "0.00013 mM"


Next molecule, Threshold to be filled in.
Request: # lookup: Threshold of O=c1nc[nH]c2c1ncn2C1O[C@H](COP(=O)(O)OP(=O)(O)OP(=O)(O)O)[C@@H](O)[C@H]1O (stereo partly shown) [trisodium salt]
Result: 0.02 mM

---

target: T1R1/T1R3 receptor (Felis catus)
assay comment: cell-based
Format: cell-based
condition context: in the presence of 0.2 mM IMP
# thresholds on Thres (mM) +IMP (0.2 mM) define classes: zone 1: < 0.1 mM; zone 2: ≥ 0.1 mM and < 0.5 mM; zone 3: ≥ 0.5 mM

Example results:
[[record]]
compound = "CCOC(=O)C(NC(=O)c1ccc2c(c1)OCO2)C(C)C (stereo not drawn)"
label_class = "zone 3"

[[record]]
compound = "CCCC(CCC)C(=O)Nc1ccc2c(c1)OCO2"
label_class = "zone 1"

[[record]]
compound = "CCC(CC)NC(=O)c1ccc(Br)o1"
label_class = "zone 2"

[[record]]
compound = "CCCC(C)NC(=O)c1ccc(OC)c(C)c1 (stereo not drawn)"
label_class = "zone 1"

[[record]]
compound = "CCC(CC)NC(=O)c1ccc(C)c(C)c1 [3,4-dimethyl-N-(pentan-3-yl)benzamide]"
label_class = "zone 3"

[[record]]
compound = "CCC(CC)NC(=O)c1ccc2c(c1)OCCO2"
label_class = "zone 1"

[[record]]
compound = "CCC(CC)NC(=O)/C=C/c1ccc(OC)cc1"
label_class = "zone 1"

[[record]]
compound = "O=C(CN1C(=O)C(=O)N(Cc2ccccc2)C1=O)c1ccccc1"
label_class = "zone 1"


Read the next record carefully.
Request: Tag the class for O=C(Nc1ccccc1Br)N[C@@H]1c2ccccc2C[C@@H]1O (stereo in doubt)
Result: zone 3

---

target: cat T1R1/T1R3 receptor (Felis catus, UniProt E3UMS2)
assay comment: cell-based
Structures can show the parent of a compound that is named as a salt.
experimental endpoint: Thres (mM)
Response body: numeric value in mM, unit text excluded.

Study these solved cases before continuing.
[[record]]
molecule = "Nc1ncnc2c1ncn2[C@H]1C[C@H](O)[C@@H](COP(=O)(O)O)O1 [2′-Deoxyadenosine 5′-monophosphate]"
experimental_endpoint = "Thres"
reported_value = 0.035

[[record]]
molecule = "CNc1ccccc1C(=O)O[C@H]1C[C@H](n2cnc3c(N)ncnc32)O[C@@H]1COP(=O)(O)O"
experimental_endpoint = "Thres"
reported_value = 0.0025

[[record]]
molecule = "CC(=O)Nc1nc2c(ncn2[C@@H]2O[C@H](COP(=O)(O)O)[C@@H](O)[C@H]2O)c(=O)[nH]1 [N-Acetyl-5′-GMP]"
experimental_endpoint = "Thres"
reported_value = 0.025

[[record]]
molecule = "CNc1ncnc2c1ncn2[C@@H]1O[C@H](COP(=O)(O)O)[C@@H](O)[C@H]1O [N6-Methyladenosine 5′-monophosphate]"
experimental_endpoint = "Thres"
reported_value = 0.020

[[record]]
molecule = "Nc1ncnc2c1ncn2[C@@H]1O[C@H](COP(=O)(O)O)[C@@H](O)[C@H]1O [Adenosine 5′-monophosphate disodium salt, reference compound]"
experimental_endpoint = "Thres"
reported_value = 0.003


Next molecule, Thres to be filled in.
Request: # lookup: Thres of O=P(O)(O)OC[C@H]1O[C@@H](n2cnc3c(NC4CCCC4)ncnc32)[C@H](O)[C@@H]1O
Result: 0.013
